B1: RTN1 (parent)
chain: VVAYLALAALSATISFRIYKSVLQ

Variants of: B1
Test Protocol: protein stability index of a GFP-peptide fusion (GPS, HEK-293T) (PSI 1-6); higher = more stable;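 further: lentivirally expressed fusions sorted by FACS into six bins by GFP to DsRed ratio, PSI derived from sequencing read proportions per bin multiplied by bin number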
Run Parameters: c terminus: a fixed tail appended
Reported protein stability index values are given for each entry in this list.
Quantity Kind: protein stability index

Mutation Label: K20P
Numeric Readout: 2.58
//
Mutation Label: L5P
Numeric Readout: 2.31
//
Mutation Label: L10R
Numeric Readout: 1.98
//
Mutation Label: L23K
Numeric Readout: 2.66
//
Mutation Label: L5N
Numeric Readout: 2.34
//
Mutation Label: A9E
Numeric Readout: 2.85
//
Mutation Label: V22F
Numeric Readout: 3.99
//
Mutation Label: A12T
Numeric Readout: 1.95
//
Mutation Label: V1Q
Numeric Readout: 2.13
//
Mutation Label: L10N
Numeric Readout: 3.25
//
Mutation Label: Y4I
Numeric Readout: 4.11
//
Mutation Label: A6P
Numeric Readout: 2.32
//
Mutation Label: L10H
Numeric Readout: 2.74
//
Mutation Label: T13C
Numeric Readout: 1.87
//
Mutation Label: V2N
Numeric Readout: 2.97
//
Mutation Label: S15T
Numeric Readout: 2.56
//
Mutation Label: A8M
Numeric Readout: 4.1
//
Mutation Label: V1Y
Numeric Readout: 2.03
//
Mutation Label: A9C
Numeric Readout: 2.86
//
Mutation Label: R17P
Numeric Readout: 2.35
//
Mutation Label: V1L
Numeric Readout: 2.56
//
Mutation Label: Y19S
Numeric Readout: 2.1
//
Mutation Label: V1G
Numeric Readout: 1.96
//
Mutation Label: L10F
Numeric Readout: 2.31
//
Mutation Label: L5K
Numeric Readout: 1.89
//
Mutation Label: V2S
Numeric Readout: 2.18
//
Mutation Label: Y4H
Numeric Readout: 2.65
//
Mutation Label: V2E
Numeric Readout: 2.41
//
Mutation Label: A9K
Numeric Readout: 2.25
//
Mutation Label: V1A
Numeric Readout: 3.01
//
Mutation Label: L10C
Numeric Readout: 2.2
//
Mutation Label: V22L
Numeric Readout: 2.33
//
Mutation Label: A6H
Numeric Readout: 2.32
//
Mutation Label: A8W
Numeric Readout: 3.8
//
Mutation Label: A3R
Numeric Readout: 2.69
//
Mutation Label: L23P
Numeric Readout: 2.48
//
Mutation Label: T13N
Numeric Readout: 2.54
//
Mutation Label: A6Y
Numeric Readout: 2.9
//
Mutation Label: I18W
Numeric Readout: 4.75
//
Mutation Label: V1K
Numeric Readout: 1.61
//
Mutation Label: A9N
Numeric Readout: 3.05
//
Mutation Label: Y4C
Numeric Readout: 3.23
//
Mutation Label: S15I
Numeric Readout: 1.84
//
Mutation Label: R17D
Numeric Readout: 2.83
//
Mutation Label: Y4F
Numeric Readout: 2.5
//
Mutation Label: A12C
Numeric Readout: 2.45
